# STUDY_SYSTEM: recombinant USP30 (amino acids 57-517 of the human sequence) (Homo sapiens (Human))
# Sequence (Q70CQ3 57-517): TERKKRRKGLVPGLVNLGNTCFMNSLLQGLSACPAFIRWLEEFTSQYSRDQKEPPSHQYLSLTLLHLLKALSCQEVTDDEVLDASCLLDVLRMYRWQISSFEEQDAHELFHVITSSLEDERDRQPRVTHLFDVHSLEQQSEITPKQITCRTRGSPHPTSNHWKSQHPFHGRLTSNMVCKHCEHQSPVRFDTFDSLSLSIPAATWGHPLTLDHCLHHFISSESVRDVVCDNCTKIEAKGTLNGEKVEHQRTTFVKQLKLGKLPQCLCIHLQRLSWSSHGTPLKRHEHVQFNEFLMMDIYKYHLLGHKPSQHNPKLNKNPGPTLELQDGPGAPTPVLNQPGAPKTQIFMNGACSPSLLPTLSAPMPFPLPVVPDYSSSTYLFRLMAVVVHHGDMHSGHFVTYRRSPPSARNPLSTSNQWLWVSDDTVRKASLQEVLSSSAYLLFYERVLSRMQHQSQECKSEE
# ASSAY_EXPLANATION: In vitro USP30 biochemical assay (Ubiquitin-Rhodamine)
# CONDITION_CONTEXT: USP30 IC50 μM (avg), Ubiquitin-Rhodamine substrate 25 nM, 1.5 nM recombinant USP30
# IC50 per record follows

Provide value of IC50 for this record tested with recombinant USP30 (amino acids 57-517 of the human sequence) (Homo sapiens (Human)): CC(C)(C#N)NS(=O)(=O)c1ccc(NC(=O)[C@H](Cc2ccccc2)NC(=O)c2ccc(F)cc2)cn1 0.05 to 1 µM

// same read-out, input: CC(C)(C)NS(=O)(=O)N1CCCc2c(NC(=O)[C@H](Cc3ccccc3)NC(=O)C3CCCCC3)cccc21 1 to 10 µM

Lookup CC(C)(C)NS(=O)(=O)c1ccc(NC(=O)[C@H](Cc2ccccc2)NC(=O)c2cccc(F)c2)cc1 0.05 to 1 µM

Also CC(C)(C)NS(=O)(=O)c1ccc(NC(=O)[C@H](Cc2ccccc2)NC(=O)OC2CCOCC2)cc1 , if possible. 1 to 10 µM

Another compound to check: O=C(N[C@@H](Cc1ccccc1)C(=O)Nc1ccc(S(=O)(=O)NCCO)cc1)c1ccc(F)cc1 0.05 to 1 µM

Repeat with CCNS(=O)(=O)c1ccc(NC(=O)[C@H](Cc2ccccn2)NC(=O)c2ccc(F)cc2)cc1 0.05 to 1 µM
